Tested on: Propionibacterium acnes
Experiment: MIC of selected lysin after single-step purification, Example 8
Format: cell-based
Conditions: single-step purified lysin; clade IA1, strain 1
Quantity Name: MIC of selected lyases relative to Propionibacterium acnes

[[record]]
molecule = "PACL404: chimeric lysin, amino acid sequence SEQ ID NO: 272 (protein, PACL404) MTFIQAAHHSSGSNLPPTRVVIHATCPEMGFPKASAKGRAVSTARYFQSASSGGSAHYVVDIGETVQCLGENVIAWHAPPNAHSLGIEICADGGSATSFSNPKVRYTRAQWLSPQVWPAVLRAAALTRKMCSKYGIPVVKLSASDLKAGKKGICGHVDVSNAFHQSDHDDPGPDFPWAEFMAAVKGGTTTQEDEDEMKEAGGPGQQDTKPSVPTPSLTEIGDQDMNGCYYNLNSKTRTYLIFDSRSGFYHEFSQGNGNGPMSPDYVNPIAKGWDTGSWPAISPGHAKVLKAALDKVRKGI"
readout_value = "8 mg/L"

[[record]]
molecule = "PACL403: chimeric lysin, amino acid sequence SEQ ID NO: 271 (protein, PACL403) MTFIQAKHHGGHNNPPVTRLVIHATCPDVGYPSASRAGRAVSTAHYFQETTRPASAHYICDISTTVQCLSEETVGYHAPPNSHSIGIEICADGGSHASFSNPAHAYTREQWLSPQVWPAVERAAMLARGICQRHNIPIRRLSIADVKAGKRGICGHNEVSEAFHQSDHDDPGPYFPWDGFIALVNGHSAPSRQEELTVSDGGEVRTPGQQDTKPSVPTPSLTEIGDQDMNGCYYNLNSKTRTYLIFDSRSGFYHEFSQGNGNGPMSPDYVNPIAKGWDTGSWPAISPGHAKVLKAALDKVRKGI"
readout_value = "16 mg/L"

[[record]]
molecule = "PACL391: chimeric lysin, amino acid sequence SEQ ID NO: 259 (protein, PACL391) MTFIQAAHHSSGSNLPPTRVVIHATCPELGFPRASAKGRAVSTARYFQSAISGGSAHYVVDVGETVQCLAEDVIAWHAPPNSRSLGIEICADGGSATSFKNPNVRYSRAQWLSPQVWPAVLRAAALTRQMCQKYGIPVTKLSASDLKAGKKGICGHVDVSNAWHQSDHDDPGPDFPWAEFMAAVKGGATNPGGEVRTPGQQDTKPSVPTPSLTEIGDQDMNGCYYNLNSKTRTYLIFDSRSGFYHEFSQGNGNGPMSPDYVNPIAKGWDTGSWPAISPGHAKVLKAALDKVRKGI"
readout_value = "8 mg/L"

[[record]]
molecule = "PACL390: chimeric lysin, amino acid sequence SEQ ID NO: 258 (protein, PACL390) MTFIQAAHHSSGSNLPPTRVVIHATCPEMGFPKASAKGRAVSTARYFQSASSGGSAHYVVDIGETVQCLGENVIAWHAPPNAHSLGIEICADGGSATSFSNPKVRYTRAQWLSPQVWPAVLRAAALTRKMCSKYGIPVVKLSASDLKAGKKGICGHVDVSNAFHQSDHDDPGPDFPWAEFMAAVKGGPGQQDTKPSVPTPSLTEIGDQDMNGCYYNLNSKTRTYLIFDSRSGFYHEFSQGNGNGPMSPDYVNPIAKGWDTGSWPAISPGHAKVLKAALDKVRKGI"
readout_value = "8 mg/L"

[[record]]
molecule = "PACL392: chimeric lysin, amino acid sequence SEQ ID NO: 260 (protein, PACL392) MTFIQAAHHSSGSNLPPTRVVIHATCPELGFPRASAKGRAVSTARYFQSAISGGSAHYVVDVGETVQCLAEDVIAWHAPPNSRSLGIEICADGGSATSFKNPNVRYSRAQWLSPQVWPAVLRAAALTRQMCQKYGIPVTKLSASDLKAGKKGICGHVDVSNAWHQSDHDDPGPDFPWAEFMAAVKGGATNPGGPGQQDTKPSVPTPSLTEIGDQDMNGCYYNLNSKTRTYLIFDSRSGFYHEFSQGNGNGPMSPDYVNPIAKGWDTGSWPAISPGHAKVLKAALDKVRKGI"
readout_value = "8 mg/L"


Where do the numbers come from? From patent US20250288652A1.
